- Test system: VZV, strain Ellen
- Test Summary: Plaque reduction assay in HFF cells
- Type: cell-based
- Recorded Conditions: Human alphaherpesvirus 3, reduces viral replication by 50%
Quantity: pEC50
// scale note: pEC50 = -log10(conc_M); give the bare number

Could you tell me which pEC50 is on file for Nc1nc2c(ncn2COCCO)c(=O)[nH]1 [Acyclovir, reference compound] ?
5.29

----------
- Test Summary: in vitro
- Recorded Conditions: human, CC50, parallel to HSV-1 DM2.1 assay
Listed here: items and their measured CC50.

Could you tell me which CC50 is on file for Nc1ccn(C[C@@H](CO)OCP(=O)(O)O)c(=O)n1 [Cidofovir, reference compound] ?
> 150 µM

---
Could you tell me which CC50 is on file for Nc1nc2c(ncn2COCCO)c(=O)[nH]1 [Acyclovir, reference compound] ?
> 150 µM

----------
- Tested on: HSV-1, strain DM2.1 (a resistant isolate)
- Test Summary: Plaque reduction assay in HFF cells
- Assay type: cell-based
- Recorded Conditions: Human alphaherpesvirus 1, HFF
Quantity: EC90

Past entries and their recorded results:
Given the entry Nc1ccn(C[C@@H](CO)OCP(=O)(O)O)c(=O)n1 [Cidofovir, reference compound] , what EC90 was observed with HSV-1, strain DM2.1 (a resistant isolate)?
> 150 µM

Check `NCCCN(CCCN)CCCN(CCCCN(CCCN(CCCN)CCCN)CCCN(CCCN)CCCN)CCCN(CCCN)CCCN` too.
> 3.8 µM

Check Nc1nc2c(ncn2COCCO)c(=O)[nH]1 [Acyclovir, reference compound] too.
> 150 µM

Okay, now this compound:
Given the entry `NCCCN(CCCN)CCCCN(CCCN)CCCN` , what EC90 was observed with HSV-1, strain DM2.1 (a resistant isolate)?
> 19 µM

----------
- Test Summary: in vitro
- Recorded Conditions: human, CC50, parallel to HSV-2 strain G assay
Quantity: CC50

Could you tell me which CC50 is on file for Nc1nc2c(ncn2COCCO)c(=O)[nH]1 [Acyclovir, reference compound] ?
> 150 µM

----------
- Test Summary: Parallel cytotoxicity assay in uninfected HFF cells
- Recorded Conditions: human, CC50, parallel to VZV Ellen assay
Quantity: CC50 (nM)
Please state the figure in nM; there is no need to write the unit.

Could you tell me which CC50 is on file for NCCNC(=O)CCN(CCC(=O)NCCN)CCN(CCC(=O)NCCN)CCC(=O)NCCN [PAMAM Dendrimer G0] ?
1170

----------
- Test Summary: Parallel cytotoxicity assay in uninfected HFF cells
- Recorded Conditions: human, CC50, parallel to HSV-2 strain G assay
Quantity: CC50 (µM)
Please state the figure in µM; there is no need to write the unit.

Could you tell me which CC50 is on file for NCCNC(=O)CCN(CCC(=O)NCCN)CCN(CCC(=O)NCCN)CCC(=O)NCCN [PAMAM Dendrimer G0] ?
4.77

----------
- Test Summary: in vitro
- Recorded Conditions: human, CC50, parallel to HSV-1 E-377 assay; reduces cell viability by 50%
Quantity: CC50

Could you tell me which CC50 is on file for Nc1nc2c(ncn2COCCO)c(=O)[nH]1 [Acyclovir, reference compound] ?
> 150 µM

----------
- Test Summary: in vitro
- Recorded Conditions: human, CC50, parallel to VZV Ellen assay
Quantity: CC50

Could you tell me which CC50 is on file for Nc1nc2c(ncn2COCCO)c(=O)[nH]1 [Acyclovir, reference compound] ?
> 150 µM

----------
- Test Summary: in vitro
- Recorded Conditions: human, CC50, parallel to HCMV AD169 assay
Quantity: CC50

Could you tell me which CC50 is on file for Nc1nc(O)c2ncn(COC(CO)CO)c2n1 [Ganciclovir, reference compound] ?
> 150 µM

----------
Listed here: items and their measured CC50.
- Test Summary: Parallel cytotoxicity assay in uninfected HFF cells
- Recorded Conditions: human, CC50, parallel to HCMV AD169 assay
Please state the figure in µM; there is no need to write the unit.

Past entries and their recorded results:
Could you tell me which CC50 is on file for `NCCNC(=O)CCN(CCC(=O)NCCN)CCN(CCC(=O)NCCN)CCC(=O)NCCN` ?
1.39

Check `NCCCN(CCCN)CCCN(CCCCN(CCCN(CCCN)CCCN)CCCN(CCCN)CCCN)CCCN(CCCN)CCCN` too.
4.41

---
Could you tell me which CC50 is on file for `NCCCN(CCCN)CCCCN(CCCN)CCCN` ?
15.4

Value source: patent US10702572B2
